Tested on: Human immunodeficiency virus 1
Test: Antiviral activity against HIV1 NL4-3 infected human MT2 cells assessed as viral infection at 10 uM administered 30 mins before viral challenge by luciferase reporter gene activation assay relative to control
Assay type: functional
VALUE KIND: Activity

• CC1(C)CC[C@]2(C(=O)NCCCCCCCCCCC(=O)NCC(=O)O)CC[C@]3(C)C(=CC[C@@H]4[C@@]5(C)C[C@@H](O)[C@H](O)C(C)(C)[C@@H]5CC[C@]43C)[C@@H]2C1 = 85.6%
• COC(=O)CNC(=O)[C@]12CCC(C)(C)C[C@H]1C1=CC[C@@H]3[C@@]4(C)C[C@@H](O)[C@H](O)C(C)(C)[C@@H]4CC[C@@]3(C)[C@]1(C)CC2 = 75.5%
• COC(=O)[C@@H](NC(=O)[C@]12CCC(C)(C)C[C@H]1C1=CC[C@@H]3[C@@]4(C)C[C@@H](O)[C@H](O)C(C)(C)[C@@H]4CC[C@@]3(C)[C@]1(C)CC2)C(C)C = 72%
